Source: PubChem BioAssay AID2060341

Tested on: 327498-153-R-J2-PDC multicell spheroid viability
Assay: Anticancer human tumor 327498-153-R-J2-PDC patient-derived uterine carcinosarcoma cell line growth inhibition [IpAb]
Conditions: second compound 1 µM; first compound 10 µM; stronger effect = lower value
assayMetric: viability, T/C (%)
The answer is to be given in %; state only the numeric part.

Supply reported viability, T/C belonging to this compound: Cn1nccc1Nc1nccc(-c2ccn(C(CO)c3ccc(Cl)c(F)c3)c(=O)c2)n1 (centres undefined) + CCN1CCN(Cc2ccc(Nc3ncc(F)c(-c4cc(F)c5nc(C)n(C(C)C)c5c4)n3)nc2)CC1 30.4

Supply reported viability, T/C belonging to this compound: C=CC(=O)N1CCN(c2nc(=O)n(-c3c(C)ccnc3C(C)C)c3nc(-c4c(O)cccc4F)c(F)cc23)C(C)C1 (centres undefined) + CC(C)NCC(C(=O)N1CCN(c2ncnc3c2C(C)CC3O)CC1)c1ccc(Cl)cc1 18.9

Supply reported viability, T/C belonging to this compound: C=CCn1c(=O)c2cnc(Nc3ccc(N4CCN(C)CC4)cc3)nc2n1-c1cccc(C(C)(C)O)n1 + CCN1CCN(Cc2ccc(Nc3ncc(F)c(-c4cc(F)c5nc(C)n(C(C)C)c5c4)n3)nc2)CC1 14.9

Supply reported viability, T/C belonging to this compound: Cn1ncc(Cl)c1-c1cc(C(=O)NC(CN)Cc2cccc(F)c2)sc1Cl (centres undefined) + CCN1CCN(Cc2ccc(Nc3ncc(F)c(-c4cc(F)c5nc(C)n(C(C)C)c5c4)n3)nc2)CC1 0.2

---

System: 327498-153-R-J2-PDC multicell spheroid viability
Experiment: Anticancer human tumor 327498-153-R-J2-PDC cell line growth inhibition [IpAb];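 further: spheroids exposed to agents for 7 days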
Conditions: curve of first compound; second compound 0.316 µM
Field: IC50. Provide a value for each of the molecules that follow.
The answer is to be given in nM; state only the numeric part.

Supply reported IC50 belonging to this molecule: Cn1cnc2c(F)c(Nc3ccc(Br)cc3Cl)c(C(=O)NOCCO)cc21 + CC(C)NCC(C(=O)N1CCN(c2ncnc3c2C(C)CC3O)CC1)c1ccc(Cl)cc1 61.2

Supply reported IC50 belonging to this molecule: CC1(C)CCC(CN2CCN(c3ccc(C(=O)NS(=O)(=O)c4ccc(NCC5CCOCC5)c([N+](=O)[O-])c4)c(Oc4cnc5[nH]ccc5c4)c3)CC2)=C(c2ccc(Cl)cc2)C1 + CC(C)NCC(C(=O)N1CCN(c2ncnc3c2C(C)CC3O)CC1)c1ccc(Cl)cc1 3980

Supply reported IC50 belonging to this molecule: C=CCn1c(=O)c2cnc(Nc3ccc(N4CCN(C)CC4)cc3)nc2n1-c1cccc(C(C)(C)O)n1 + CC(C)NCC(C(=O)N1CCN(c2ncnc3c2C(C)CC3O)CC1)c1ccc(Cl)cc1 151

Supply reported IC50 belonging to this molecule: Cn1nccc1Nc1nccc(-c2ccn(C(CO)c3ccc(Cl)c(F)c3)c(=O)c2)n1 (stereo not drawn) + CC(C)NCC(C(=O)N1CCN(c2ncnc3c2C(C)CC3O)CC1)c1ccc(Cl)cc1 684

Supply reported IC50 belonging to this molecule: Cc1nc(NC(=O)N2CCCC2C(N)=O)sc1-c1ccnc(C(C)(C)C(F)(F)F)c1 (stereo not drawn) + CCN1CCN(Cc2ccc(Nc3ncc(F)c(-c4cc(F)c5nc(C)n(C(C)C)c5c4)n3)nc2)CC1 262

Supply reported IC50 belonging to this molecule: COc1c(OCCCN2CCOCC2)ccc2c3n(c(=NC(=O)c4cnc(N)nc4)nc12)CCN3 + CCN1CCN(Cc2ccc(Nc3ncc(F)c(-c4cc(F)c5nc(C)n(C(C)C)c5c4)n3)nc2)CC1 5.63

Supply reported IC50 belonging to this molecule: CC(C)(C)c1cnc(CSc2cnc(NC(=O)C3CCNCC3)s2)o1 + CC(C)NCC(C(=O)N1CCN(c2ncnc3c2C(C)CC3O)CC1)c1ccc(Cl)cc1 109

Supply reported IC50 belonging to this molecule: Cn1ncnc1[C@H]1c2n[nH]c(=O)c3cc(F)cc(c23)N[C@@H]1c1ccc(F)cc1 + CC(C)NCC(C(=O)N1CCN(c2ncnc3c2C(C)CC3O)CC1)c1ccc(Cl)cc1 8.7

Supply reported IC50 belonging to this molecule: CC(C)n1nc(-c2ccc3oc(N)nc3c2)c2c(N)ncnc21 + CC(C)NCC(C(=O)N1CCN(c2ncnc3c2C(C)CC3O)CC1)c1ccc(Cl)cc1 1.76

Supply reported IC50 belonging to this molecule: Cn1ncc(Cl)c1-c1cc(C(=O)NC(CN)Cc2cccc(F)c2)sc1Cl (stereo not drawn) + CC(C)NCC(C(=O)N1CCN(c2ncnc3c2C(C)CC3O)CC1)c1ccc(Cl)cc1 1640

Supply reported IC50 belonging to this molecule: C=CCn1c(=O)c2cnc(Nc3ccc(N4CCN(C)CC4)cc3)nc2n1-c1cccc(C(C)(C)O)n1 + CCN1CCN(Cc2ccc(Nc3ncc(F)c(-c4cc(F)c5nc(C)n(C(C)C)c5c4)n3)nc2)CC1 250

Supply reported IC50 belonging to this molecule: COc1c(OCCCN2CCOCC2)ccc2c3n(c(=NC(=O)c4cnc(N)nc4)nc12)CCN3 + CC(C)NCC(C(=O)N1CCN(c2ncnc3c2C(C)CC3O)CC1)c1ccc(Cl)cc1 35.8

Supply reported IC50 belonging to this molecule: Cn1ncnc1[C@H]1c2n[nH]c(=O)c3cc(F)cc(c23)N[C@@H]1c1ccc(F)cc1 + CCN1CCN(Cc2ccc(Nc3ncc(F)c(-c4cc(F)c5nc(C)n(C(C)C)c5c4)n3)nc2)CC1 2.84

Supply reported IC50 belonging to this molecule: CC(=O)c1c(C)c2cnc(Nc3ccc(N4CCNCC4)cn3)nc2n(C2CCCC2)c1=O + CC(C)NCC(C(=O)N1CCN(c2ncnc3c2C(C)CC3O)CC1)c1ccc(Cl)cc1 45.7

Supply reported IC50 belonging to this molecule: CC(C)(C)c1cnc(CSc2cnc(NC(=O)C3CCNCC3)s2)o1 + CCN1CCN(Cc2ccc(Nc3ncc(F)c(-c4cc(F)c5nc(C)n(C(C)C)c5c4)n3)nc2)CC1 37.5

Supply reported IC50 belonging to this molecule: CC(C)n1nc(-c2ccc3oc(N)nc3c2)c2c(N)ncnc21 + CCN1CCN(Cc2ccc(Nc3ncc(F)c(-c4cc(F)c5nc(C)n(C(C)C)c5c4)n3)nc2)CC1 1.03

Supply reported IC50 belonging to this molecule: CC1(C)CCC(CN2CCN(c3ccc(C(=O)NS(=O)(=O)c4ccc(NCC5CCOCC5)c([N+](=O)[O-])c4)c(Oc4cnc5[nH]ccc5c4)c3)CC2)=C(c2ccc(Cl)cc2)C1 + CCN1CCN(Cc2ccc(Nc3ncc(F)c(-c4cc(F)c5nc(C)n(C(C)C)c5c4)n3)nc2)CC1 3890

Supply reported IC50 belonging to this molecule: Cc1nc(NC(=O)N2CCCC2C(N)=O)sc1-c1ccnc(C(C)(C)C(F)(F)F)c1 (stereo not drawn) + CC(C)NCC(C(=O)N1CCN(c2ncnc3c2C(C)CC3O)CC1)c1ccc(Cl)cc1 4450
